Test system: Human alphaherpesvirus 1
Experiment: Inhibition of growth of herpes simplex virus (HSV-1) by plaque reduction assay in vero cell line
Type: functional, organism-based, herpes simplex vir
Settings: Human alphaherpesvirus 1, Vero
test_readout: IC50

Provide IC50, tested on Human alphaherpesvirus 1, for O=c1[nH]c(=O)n(COC(CO)CO)cc1I .
> 100 µM

* * *

Test system: Cytomegalovirus
Assay: Inhibition of growth of human cytomegalovirus (HCMV) was determined by plaque reduction assay in Detroit cells
Assay type: functional, organism-based
Settings: Human betaherpesvirus 5, Detroit
pIC50: −log10 of the molar value.
test_readout: pIC50

Provide pIC50, tested on Cytomegalovirus, for O=c1[nH]c(=O)n(COC(CO)CO)cc1I [IODACYCLUR] .
< 4.00
